# tube area decrease per record follows
# experiment.notes: inhibition of endothelial tube formation, primary screen, imaging, VEGF stimulated, CD31 staining, tube area, NPC library (AID 1117340)
# test.settings: VEGF-stimulated ADSC/ECFC co-culture, at 10 µM, active compounds read high
Provide only the numeric value, understood in %.

Here is how some molecules turned out for tube area decrease.
CC(C)NCC(O)c1ccc(O)c(O)c1 (centres undefined)    -8.1
CCCCCCCCC=CCCCCCCCC(=O)NCCOC(=O)CC(C(=O)O)S(=O)(=O)O (centres undefined)    22.7
CC(C)C(=O)Nc1ccc([N+](=O)[O-])c(C(F)(F)F)c1    -12.8
Cc1nc(C2CCCCC2)c(-c2ccc(S(N)(=O)=O)c(F)c2)o1    24
Cc1cc(N)c2cc(NC(=O)Nc3ccc4nc(C)cc(N)c4c3)ccc2n1    -0.3
CCc1ccc(C(=O)C(C)CN2CCCCC2)cc1 (centres undefined)    -30.1
NCC[C@H](O)C(=O)N[C@@H]1C[C@H](N)[C@@H](O[C@H]2O[C@H](CN)[C@@H](O)[C@H](O)[C@@H]2O)[C@H](O)[C@@H]1O[C@H]1O[C@H](CO)[C@@H](O)[C@H](N)[C@@H]1O    -7.9
CCCCCCn1c(=O)c2c(ncn2C)n(C)c1=O    10.5

Read off the recorded tube area decrease for O=C1Cc2cc(Cl)ccc2N1
2.8
